Data origin: ChEMBL document CHEMBL1275351

ASSAY_DETAILS: Cmax in Sprague-Dawley rat hypnotic model at 3 mg/kg, po administered during active phase measured after 2 hrs
Format: ADME, organism-based
Set-up: dose 3 mg/kg, route oral
CONDITION_SUMMARY: in vivo
READOUT_TYPE: Cmax (µg/mL)
One number for each entry, in µg/mL.

Lookup: Reported Cmax for O=C(O)C1CN(C2CC[C@]3(Cc4ccccc4Cc4ccccc43)C2)C1 (stereo partly specified) : what is it?
Found: 0.626

---

ASSAY_DETAILS: Oral bioavailability in Sprague-Dawley rat at 3 mg/kg
Format: ADME, organism-based
CONDITION_SUMMARY: in vivo
READOUT_TYPE: bioavailability
Form field: result (number plus unit)

Would you please look over these solved cases?
Lookup: Query: bioavailability; subject: O=C(O)C1=CCN(C2CCC3(Cc4ccccc4Oc4ccccc43)C2)CC1 (centres undefined)
Found: 37%

Lookup: Which measured bioavailability value corresponds to O=C(O)C1CN(C2CC[C@]3(Cc4ccccc4Cc4ccccc43)C2)C1 (some centres undefined) ?
Found: 54%

Batch of 2 compounds: report bioavailability for each.
1. O=C(O)C1(F)CCN(C2CC[C@]3(Cc4ccccc4Cc4ccccc43)C2)CC1 (some centres undefined)
2. O=C(O)C1=CCCN(C2CC[C@]3(Cc4ccccc4Cc4ccccc43)C2)C1 (single isomer, unassigned; stereoisomer 1)

Found:
22%
80%
